Kindly state koff for each of the entries shown.
target_or_test_system: T1, recombinant human IGSF8 extracellular domain tagged by a human Fc region (IGSF8-hFc) (human, UniProt Q969P0 28-579, biotin label in Examples 17, 18 and 28 (site not given))
T1 construct: also called IGSF8-Fc fusion protein; IGSF8-hFc-biotin; not shown: human Fc region
T1 sequence: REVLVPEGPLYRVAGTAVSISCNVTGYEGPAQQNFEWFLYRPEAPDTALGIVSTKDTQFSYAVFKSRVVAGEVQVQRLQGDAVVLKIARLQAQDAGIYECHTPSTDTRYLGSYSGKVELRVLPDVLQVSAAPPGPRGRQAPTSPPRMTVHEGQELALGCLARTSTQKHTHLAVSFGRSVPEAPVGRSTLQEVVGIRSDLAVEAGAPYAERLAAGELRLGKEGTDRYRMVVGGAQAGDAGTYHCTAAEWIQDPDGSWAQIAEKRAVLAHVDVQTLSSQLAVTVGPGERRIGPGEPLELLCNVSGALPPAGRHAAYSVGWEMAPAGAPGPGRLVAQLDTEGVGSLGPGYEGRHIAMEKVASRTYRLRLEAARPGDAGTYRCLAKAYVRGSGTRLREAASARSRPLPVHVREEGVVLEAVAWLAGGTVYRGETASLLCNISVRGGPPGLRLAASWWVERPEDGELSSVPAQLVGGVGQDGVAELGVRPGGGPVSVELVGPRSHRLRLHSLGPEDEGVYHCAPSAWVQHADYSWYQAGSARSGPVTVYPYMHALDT
assay_explanation: SPR, Ab captured
Write the numeric value and append its unit.

1. L1-13 (antibody, V domains shown) VH: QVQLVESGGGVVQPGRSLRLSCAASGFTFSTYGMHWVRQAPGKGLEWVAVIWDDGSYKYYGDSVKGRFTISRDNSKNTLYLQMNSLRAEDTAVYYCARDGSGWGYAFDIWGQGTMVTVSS VL: DIQLTQSPSSLSASVGDRVTITCQASQDISEYLNWYQHKPGKAPNPLVFDAPNLETGVPPRFSATGSGTDFSLTITSLQPEDFATYYCQQYDSFPYTFGQGTRLDIK	0.00216 s⁻¹
2. L1-15 (antibody, V domains shown) VH: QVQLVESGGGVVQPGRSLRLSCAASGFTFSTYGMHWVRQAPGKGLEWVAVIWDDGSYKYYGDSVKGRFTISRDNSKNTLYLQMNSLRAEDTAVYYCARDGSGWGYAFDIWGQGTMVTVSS VL: DIQLTQSPSSLSASVGDRVTITCQASQDIMKTLNWYQHKPGKAPNPLVFDAANLETGVPPRFSATGSGTDFSLTITSLQPEDFATYYCQQYDSFPYTFGQGTRLDIK	0.00155 s⁻¹
3. L1-28 (antibody, V domains shown) VH: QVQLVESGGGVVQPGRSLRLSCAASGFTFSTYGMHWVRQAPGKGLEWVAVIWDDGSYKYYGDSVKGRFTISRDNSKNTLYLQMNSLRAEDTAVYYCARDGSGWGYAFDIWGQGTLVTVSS VL: DIQLTQSPSSLSASVGDRVTITCQASQDIEWWLNWYQHKPGKAPKPLIYGSPNLETGVPSRFSGSGSGTDFTFTISSLQPEDIATYYCQQYDSFPYTFGQGTKVEIK	4.28e-07 s⁻¹
4. L2VL-I53S (antibody, V domains shown) VH: EVQLVESGGGLEQPGGSLRLSCAGSGFTFRDYAMTWVRQAPGKGLEWVSSISGSGGNTYYADSVKGRFTISRDNSKNTLYLQMNSLRAEDTAIYYCARGEYSSGWPSWFDPWGQGTLVTVSS VL: EIVLTQSPSSLSASVGDRVTISCRASRTVGTFLNWYQQRPGKPPQALILGVSSLEGGVSSRFSGAGSGTEFSLTISSLQPEDIGTYYCQQSHDVPRTFGQGTKVDLR	0.00173 s⁻¹
5. L1VH-W52L (antibody, V domains shown, mutant of the L1 antibody) VH: QVQLVESGGGVVQPGRSLRLSCAASGFTFSTYGMHWVRQAPGKGLEWVAVILDDGSYKYYGDSVKGRFTISRDNSKNTLYLQMNSLRAEDTAVYYCARDGSGWGYAFDIWGQGTMVTVSS VL: DIQLTQSPSSLSASVGDRVTITCQASQDISEYLNWYQHKPGKAPNPLVFDAANLETGVPPRFSATGSGTDFSLTITSLQPEDFATYYCQQYDSFPYTFGQGTRLDIK	0.0165 s⁻¹
6. L2-04 (antibody, V domains shown) VH: EVQLVESGGGLEQPGGSLRLSCAASGFTFRDYAMTWVRQAPGKGLEWVSSISGSGGSTYYADSVKGRFTISRDNSKNTLYLQMNSLRAEDTAIYYCARGEYSSGWPSWFDPWGQGTLVTVSS VL: EIVLTQSPSSLSASVGDRVTISCRASRTVGTFLNWYQQRPGKPPQALILGVSILEGGVSSRFSGAGSGTEFSLTISSLQPEDIGTYYCQQSHDVPRTFGQGTKVDLR	0.000142 s⁻¹
7. L1-02 (antibody, V domains shown) VH: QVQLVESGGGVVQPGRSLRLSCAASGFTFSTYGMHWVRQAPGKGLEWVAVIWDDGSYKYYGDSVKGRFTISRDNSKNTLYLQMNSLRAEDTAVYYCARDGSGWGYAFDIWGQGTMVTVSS VL: DIQLTQSPSSLSASVGDRVTITCQASQDISKPLNWYQHKPGKAPNPLVFDAANLETGVPPRFSATGSGTDFSLTITSLQPEDFATYYCQQYDSFPYTFGQGTRLDIK	0.00127 s⁻¹
8. L2VH-R30S (antibody, V domains shown) VH: EVQLVESGGGLEQPGGSLRLSCAGSGFTFSDYAMTWVRQAPGKGLEWVSSISGSGGNTYYADSVKGRFTISRDNSKNTLYLQMNSLRAEDTAIYYCARGEYSSGWPSWFDPWGQGTLVTVSS VL: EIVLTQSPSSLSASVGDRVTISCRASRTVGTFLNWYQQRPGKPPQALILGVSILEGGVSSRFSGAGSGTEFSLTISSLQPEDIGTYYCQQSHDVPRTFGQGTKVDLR	0.00165 s⁻¹

List koff for every entry below, keeping the order given.
1. L1VL-V48D (antibody, V domains shown) VH: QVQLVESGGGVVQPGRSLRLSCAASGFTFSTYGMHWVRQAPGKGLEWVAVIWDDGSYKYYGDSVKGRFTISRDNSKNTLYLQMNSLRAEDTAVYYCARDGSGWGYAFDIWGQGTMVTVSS VL: DIQLTQSPSSLSASVGDRVTITCQASQDISEYLNWYQHKPGKAPNPLDFDAANLETGVPPRFSATGSGTDFSLTITSLQPEDFATYYCQQYDSFPYTFGQGTRLDIK
2. L2-02 (antibody, V domains shown) VH: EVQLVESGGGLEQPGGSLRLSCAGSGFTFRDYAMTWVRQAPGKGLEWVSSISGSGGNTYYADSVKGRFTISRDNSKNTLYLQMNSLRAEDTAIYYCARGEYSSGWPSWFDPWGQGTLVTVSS VL: EIVLTQSPSSLSASVGDRVTISCRASRTVGTFLNWYQQRPGKPPQALILHTSILEGGVSSRFSGAGSGTEFSLTISSLQPEDIGTYYCQQSHDVPRTFGQGTKVDLR

Return:
1. 0.023 s⁻¹
2. 0.000131 s⁻¹
